Source of measurements: the kinase profiling compilation of Christmann-Franck et al. (2016)

Each entry below carries its reported kinase still bound, per cent of control.
# experimental-system: FLT1 (human)
# experimental-details: KINOMEscan competition binding
# cond: compound 10.0 µM

molecule | kinase still bound, per cent of control (%)
C[C@@H](Oc1cc(-c2cnn(C3CCNCC3)c2)cnc1N)c1c(Cl)ccc(F)c1Cl | 25
COc1cc2ncn(-c3cc(OCc4ccccc4C(F)(F)F)c(C(N)=O)s3)c2cc1OC | 58
CNC(=O)c1cc(Oc2ccc(NC(=O)Nc3ccc(Cl)c(C(F)(F)F)c3)cc2)ccn1 | 6.6
CCN(CC)CCCCNc1ncc2cc(-c3cc(OC)cc(OC)c3)c(NC(=O)NC(C)(C)C)nc2n1 | 8
COc1cc(C(=O)N2CCC(N3CCN(C)CC3)CC2)ccc1Nc1ncc2c(n1)N(C)c1ccccc1C(=O)N2C | 100
CNC(=O)c1ccc(Nc2cc(Nc3ccccc3S(=O)(=O)C(C)C)c3cc[nH]c3n2)nc1 | 100
COc1cc(N2CCN(C)CC2)ccc1Nc1ncc2c(n1)N(C)c1ccccc1C(=O)N2C | 100
Cc1n[nH]c2ccc(-c3cncc(OC[C@@H](N)Cc4c[nH]c5ccccc45)c3)cc12 | 100
O=C1NC(=O)/C(=C/c2ccc3nccc(-c4ccncc4)c3c2)S1 | 73

====

# experimental-system: MAST1 (human) (UniProt Q9Y2H9)
# Sequence (Q9Y2H9 whole entry, looked up): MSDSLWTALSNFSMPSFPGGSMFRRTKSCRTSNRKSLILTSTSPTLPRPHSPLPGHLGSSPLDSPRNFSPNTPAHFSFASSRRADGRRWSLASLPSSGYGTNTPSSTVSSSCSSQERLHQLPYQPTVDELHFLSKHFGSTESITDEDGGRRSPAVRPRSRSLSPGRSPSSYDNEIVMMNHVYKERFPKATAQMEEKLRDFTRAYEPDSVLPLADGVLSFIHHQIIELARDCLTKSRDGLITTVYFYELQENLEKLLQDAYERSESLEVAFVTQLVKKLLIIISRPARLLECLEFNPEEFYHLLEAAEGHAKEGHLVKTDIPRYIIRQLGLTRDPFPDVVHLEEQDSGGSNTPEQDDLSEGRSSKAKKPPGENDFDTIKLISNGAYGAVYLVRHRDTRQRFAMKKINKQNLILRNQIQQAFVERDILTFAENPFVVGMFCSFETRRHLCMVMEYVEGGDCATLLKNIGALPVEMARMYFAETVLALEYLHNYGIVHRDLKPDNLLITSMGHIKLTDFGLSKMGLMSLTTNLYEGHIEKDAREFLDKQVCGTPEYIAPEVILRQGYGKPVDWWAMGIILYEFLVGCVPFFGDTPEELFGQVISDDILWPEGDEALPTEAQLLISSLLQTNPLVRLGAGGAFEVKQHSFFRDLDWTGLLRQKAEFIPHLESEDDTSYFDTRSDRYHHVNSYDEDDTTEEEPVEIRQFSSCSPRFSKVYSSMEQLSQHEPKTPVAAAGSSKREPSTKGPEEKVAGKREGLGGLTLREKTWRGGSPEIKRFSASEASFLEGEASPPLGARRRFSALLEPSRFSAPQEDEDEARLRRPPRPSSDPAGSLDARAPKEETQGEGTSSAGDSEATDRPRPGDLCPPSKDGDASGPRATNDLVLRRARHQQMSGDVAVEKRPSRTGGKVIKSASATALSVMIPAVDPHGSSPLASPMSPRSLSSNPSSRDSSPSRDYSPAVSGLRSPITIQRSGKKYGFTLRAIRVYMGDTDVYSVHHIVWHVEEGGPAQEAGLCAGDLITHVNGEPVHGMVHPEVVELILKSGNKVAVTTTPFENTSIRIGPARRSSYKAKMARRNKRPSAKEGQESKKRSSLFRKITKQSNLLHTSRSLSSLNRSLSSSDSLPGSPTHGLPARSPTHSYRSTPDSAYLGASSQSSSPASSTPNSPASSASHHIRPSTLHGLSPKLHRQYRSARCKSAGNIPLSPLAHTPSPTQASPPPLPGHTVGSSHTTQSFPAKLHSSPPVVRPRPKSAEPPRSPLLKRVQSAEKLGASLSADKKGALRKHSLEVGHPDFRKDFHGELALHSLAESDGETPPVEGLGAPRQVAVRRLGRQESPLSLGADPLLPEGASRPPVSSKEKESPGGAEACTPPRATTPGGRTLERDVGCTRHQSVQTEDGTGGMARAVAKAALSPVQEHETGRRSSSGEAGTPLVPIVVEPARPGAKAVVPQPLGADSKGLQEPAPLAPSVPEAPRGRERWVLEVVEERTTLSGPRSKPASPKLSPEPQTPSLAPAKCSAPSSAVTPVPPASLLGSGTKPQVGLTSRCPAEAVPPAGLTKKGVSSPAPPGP
# experimental-details: KINOMEscan competition binding
# cond: compound 10.0 µM
recorded-metric: kinase still bound, per cent of control (%)

molecule | result
COCC(=O)NC/C=C/c1ccc2ncnc(Nc3ccc(Oc4ccc(C)nc4)c(C)c3)c2c1 | 100
COc1cc2ncnc(-n3nc(-c4ccccn4)nc3N)c2cc1OC | 73
NC(=O)Nc1cc(-c2cccc(F)c2)sc1C(=O)N[C@@H]1CCCNC1 | 4.1
C[C@@H](Oc1cc(-c2cnn(C3CCNCC3)c2)cnc1N)c1c(Cl)ccc(F)c1Cl | 100
COc1cc(C(=O)N2CCC(N3CCN(C)CC3)CC2)ccc1Nc1ncc2c(n1)N(C)c1ccccc1C(=O)N2C | 100
CN(C)C/C=C/C(=O)Nc1ccc(C(=O)Nc2cccc(Nc3nccc(-c4cccnc4)n3)c2)cc1 | 100
CCN(CC)CCCCNc1ncc2c(n1)N(C)C(=O)N(c1c(Cl)c(OC)cc(OC)c1Cl)C2 | 100
COc1cc(N2CCN(C)CC2)ccc1Nc1ncc2c(n1)N(C)c1ccccc1C(=O)N2C | 100
C=CC(=O)Nc1cc(-n2c(=O)ccc3cnc4ccc(-c5cn[nH]c5)cc4c32)ccc1C | 85
COc1cc2ncn(-c3cc(OCc4ccccc4C(F)(F)F)c(C(N)=O)s3)c2cc1OC | 75
O=C(Nc1cccc(Nc2ncc(Br)c(NCCc3cnc[nH]3)n2)c1)N1CCCC1 | 58
COc1ccc(N(C(=O)Oc2c(C)cccc2C)c2ccnc(Nc3ccc(N4CCN(C)CC4)cc3)n2)c(OC)c1 | 100
O=c1cc(N2CCOCC2)oc2c(-c3cccc4c3sc3ccccc34)cccc12 | 100
O=C1NC(=O)/C(=C/c2ccc3nccc(-c4ccncc4)c3c2)S1 | 83
N#CCNC(=O)c1ccc(-c2ccnc(Nc3ccc(N4CCOCC4)cc3)n2)cc1 | 42
CNC(=O)c1cc(Oc2ccc(NC(=O)Nc3ccc(Cl)c(C(F)(F)F)c3)cc2)ccn1 | 100
CCN1CCN(C(=O)Cc2ccc(Nc3ncc(F)c(Nc4ccc(C(=O)Nc5ccccc5Cl)cc4)n3)cc2)CC1 | 100
CS(=O)(=O)N1CCN(Cc2cc3nc(-c4cccc5[nH]ncc45)nc(N4CCOCC4)c3s2)CC1 | 100
